# test_protocol: Plasma concentration versus time of Compound I and metabolite Compound III in patients dosed QD or BID with Form B of Compound II plus fulvestrant
# Type: in vivo, human
# condition: human, plasma, oral, 400 mg, 400 mg QD of Form B, Day 29, […], Median; read-out: Compound I Concentration

molecule: CC(C)N1CCN(c2ccc(Nc3ncc4cc5n(c4n3)C3(CCCCC3)CNC5=O)nc2)CC1 [Compound I]
concentration at 24 h [ng/mL]: 7.04

---

# test_protocol: Plasma concentration versus time of Compound I and metabolite Compound III in patients dosed QD or BID with Form B of Compound II plus fulvestrant
# Format: in vivo, human
# condition: human, plasma, oral, 100 mg, 100 mg BID of Form B, Day 1, 12.0 h, Mean; read-out: Compound I Concentration
property_name: concentration at 12 h (ng/mL)

molecule: CC(C)N1CCN(c2ccc(Nc3ncc4cc5n(c4n3)C3(CCCCC3)CNC5=O)nc2)CC1 [Compound I]
property_name: concentration at 12 h
result_unit: ng/mL
observed: 2.93
